The values you see were collected from patent US5637591A.

# PROCEDURE_SUMMARY: oral bioavailability in rats (AUC versus intravenous)
# MEASUREMENT_PARAMETERS: rat, in vivo, po, 100 mg/kg, rats, 100 mg/kg oral, Encapsin CD; compared to 10 mg/kg IV; read-out: F (Bioavailability)
ATTRIBUTE_MEASURED: bioavailability (%)

COMPOUND | ATTRIBUTE_MEASURED | READING_UNIT | OBSERVED_VALUE
Nc1ccc2c(c1)[n+]([O-])c1ccccc1[n+]2[O-] [2-aminophenazine-5,10-dioxide] | bioavailability | % | 90

====

# PROCEDURE_SUMMARY: oral bioavailability in rats (AUC versus intravenous)
# MEASUREMENT_PARAMETERS: rat, in vivo, po, 100 mg/kg, rats, 100 mg/kg oral, PEG (Polyethyleneglycol)
ATTRIBUTE_MEASURED: AUC

MOLECULE | OBSERVED_VALUE
Nc1ccc2c(c1)[n+]([O-])c1ccccc1[n+]2[O-] [2-aminophenazine-5,10-dioxide] | 3940 ng·h/mL
